Target: Thymidine kinase, cytosolic (Rattus norvegicus, UniProt P27158)
Sequence (P27158 whole entry): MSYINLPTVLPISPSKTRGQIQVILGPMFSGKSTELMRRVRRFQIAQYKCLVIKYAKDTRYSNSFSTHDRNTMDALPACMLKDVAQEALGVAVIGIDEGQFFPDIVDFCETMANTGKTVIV
Assay: Affinity towards cytoplasmic Thymidine kinase relative ot TdR; expressed as KM (TdR)/Ki
pKi: −log10 of the molar value.

>  <COMPOUND>
Cc1cn(C2CC(O)C(CSCCCC(=O)O)O2)c(=O)[nH]c1=O (stereo unspecified)

>  <ASSAYED SYSTEM>
Thymidine kinase, cytosolic (Rattus norvegicus, UniProt P27158)

>  <pKi>
2.44

$$$$
